# Test system: U251 CNS
# experiment.notes: NCI tumour cell line growth inhibition, 48 h
Hi there, I'd appreciate the recorded TGI for every entry that follows.
Please respond with the number in µM and leave the unit unwritten.

[ask] Which TGI value belongs to `c1ccc(-c2nn(-c3ccccc3)[n+](-c3ccccc3-c3ccccc3)n2)cc1` ?
[reply] 61.8

[ask] Value lookup for TGI; key = `COc1ccc2c(-c3csc(-c4c[nH]c5ccccc45)n3)c[nH]c2c1`
[reply] 29.8

[ask] Any idea what its TGI is? The compound is `C/C(=C\COc1ccc2ccc(=O)oc2c1)CCC(=O)C(C)(C)O`
[reply] 47.4

[ask] If you can, please state the reported TGI value of Clc1ccc(C2=NNC(c3cccc(Cl)c3)C2)cc1 (stereo unspecified) .
[reply] 37.5

[ask] Which TGI is listed for `COc1cc2cc(Oc3ccc(NC(=O)Nc4cc(C(F)(F)F)cc(C(F)(F)F)c4)cc3)c(C)nc2cc1OCCN1CCCCC1` ?
[reply] 3.41

[ask] For the compound shown here, `Cn1ccnc1C(=O)/C=C/c1ccc(CC(=O)Nc2cc(F)c(F)c(F)c2)cc1` , give the reported TGI.
[reply] 3.2

[ask] Using the record for `c1ccc2c(c1)[C@@H]1O[C@@H]1[C@@]13O[C@@]21[C@H]1O[C@H]1c1ccccc13` , report its TGI.
[reply] 28.2

[ask] // lookup TGI for `BrCC[N+]12CCCN1CCC2`
[reply] 32.7

[ask] Record request: TGI value, item `C=C1C(=O)O[C@H]2[C@H]1CC/C(COC(=O)c1ccc(Br)cc1)=C\CC[C@@]1(C)O[C@@H]21`
[reply] 2.98
